Give measured Ki67 Proliferation, Day 9, IS for each item. Keep answers brief.
Target: canine CD3 on canine T cells (canine PBMC) (canine, UniProt P27597 22-202)
Sequence (P27597 22-202 limits assumed, chain 1 of 3): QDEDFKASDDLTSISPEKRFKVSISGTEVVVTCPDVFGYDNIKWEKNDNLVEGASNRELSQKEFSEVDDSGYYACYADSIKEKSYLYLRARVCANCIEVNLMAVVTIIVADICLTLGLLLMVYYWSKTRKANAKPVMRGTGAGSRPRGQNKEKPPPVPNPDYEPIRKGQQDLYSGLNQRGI
Sequence (chain, as listed by the source limits assumed, chain 2 of 3): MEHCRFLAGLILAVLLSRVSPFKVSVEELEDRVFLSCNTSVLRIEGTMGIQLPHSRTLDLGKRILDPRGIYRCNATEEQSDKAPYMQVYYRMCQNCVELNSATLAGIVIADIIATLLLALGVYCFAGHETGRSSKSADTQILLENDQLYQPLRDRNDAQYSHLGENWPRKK
Sequence (chain, as listed by the source limits assumed, chain 3 of 3): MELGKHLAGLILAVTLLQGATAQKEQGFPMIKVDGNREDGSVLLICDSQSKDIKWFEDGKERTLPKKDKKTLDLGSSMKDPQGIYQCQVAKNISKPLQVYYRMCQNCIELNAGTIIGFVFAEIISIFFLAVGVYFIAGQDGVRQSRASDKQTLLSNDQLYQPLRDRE
Assay: cell-based or functional assay
Please give the numeric answer without any surrounding text.

Recorded Ki67 Proliferation, Day 9, IS (binder PMX176 (monospecific anti-canine CD3, canine IgG-B effector function deficient Fc) (antibody, V domains shown) VH: EVQLVESGGDLVKPGGSLRLSCVASGFTFSSYHMSWVRQAPGKGLQWVAYINSAGSTTSYTDAVQGRFTISRDNAKNTLYLQMNSLRAEDTAVYYCASEWIFMPWGQGSLVTVSS VL: SYVLTQLPSKNVTLKQPAHITCGGDNIGSKSVHWYQQKLGQAPVLIIYYDSSRPTGIPERFSGANSGNTATLTISGALAEDEADYYCQVWDSSAKARVFGEGTQLTVL ): 2.2

Recorded Ki67 Proliferation, Day 9, IS (binder PMX179 (monospecific anti-canine CD3, canine IgG-B effector function deficient Fc) (antibody, V domains shown) VH: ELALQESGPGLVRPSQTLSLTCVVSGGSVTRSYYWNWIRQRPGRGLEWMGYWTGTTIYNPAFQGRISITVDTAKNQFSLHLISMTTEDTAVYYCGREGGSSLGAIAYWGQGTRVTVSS VL: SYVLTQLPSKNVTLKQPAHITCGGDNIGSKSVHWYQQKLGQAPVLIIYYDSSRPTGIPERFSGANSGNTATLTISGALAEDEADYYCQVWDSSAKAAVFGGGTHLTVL ): 2.06

Recorded Ki67 Proliferation, Day 9, IS (binder PMX181 (monospecific anti-canine CD3, canine IgG-B effector function deficient Fc) (antibody, V domains shown) VH: ELTLQESGPGLVKPSQTLSLTCIVSGGSVTNNYYWTWIRQRPGRGLEWMGYWTGFTNYNPAFQGRISIIANTAKKQLSLQLSSLTTEDTAVYYCARRAIPTYFDYWGQGTLVTVSS VL: SYVLTQLPSKNVTLKQPAHITCGGDNIGSRSVHWYQQKLGQAPVLIIYYDSSRPTGIPERFSGANSGNTATLTISGALAEDEADYYCQVWDSSASVFGGGTHLTVL ): 2.69
